B1: ZNF75A (parent)
chain: RTHTGEQPYTCSICRRNFSRRSSL

- Variants of: B1
- testDetails: protein stability index of a GFP-peptide fusion (GPS, HEK-293T) (PSI 1-6); higher = more stable;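 also: lentivirally expressed fusions sorted by FACS into six bins by GFP to DsRed ratio, PSI derived from sequencing read proportions per bin multiplied by bin number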
- reportedConditions: c terminus: a fixed tail appended
valueType: protein stability index
Answer with a bare number; do not write a unit.

Past entries and their recorded results:
S19C    2.52
R20Y    2.24
S19P    2.23

Which protein stability index is reported for this variant? L24M 2.96

Looking for the measured protein stability index of R20A , can you help? 2.67

Item under review: T10M . Reported protein stability index? 3.48

Fill blank: measured protein stability index of the variant E6I is ____. 3.05
